Experiment: HCT116 colon cancer cell growth inhibition, primary screen, CellTiter-Glo luminescence, NPC library (AID 1117342)
Conditions: at 20 µM (top of the series)
# inhibition of viability per record follows
API: value field is a number in %; no unit string.

Worked cases, inhibition of viability given:
[
  {
    "molecule": "CCOC(=O)C1=C(COCCN)NC(C)=C(C(=O)OC)C1c1ccccc1Cl (stereo unspecified)",
    "unit-text": "%",
    "inhibition of viability": 99.3
  },
  {
    "molecule": "CCOC(=O)c1cccc(N)c1",
    "unit-text": "%",
    "inhibition of viability": -7.9
  }
]

Alright, here's another molecule for you.
Task item: GET /values?readout=inhibition of viability&item= `CCCCCOc1ccccc1/C(=C\SC)n1ccnc1`
Reply: 61.1

###

Assay: inhibition of endothelial tube formation, primary screen, imaging, VEGF stimulated, CD31 staining, tube area, NPC library (AID 1117340)
Details: VEGF-stimulated ADSC/ECFC co-culture, at 10 µM
Activity calls are given as the source filed them.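 How the source made its calls: active means compound that reduces growth-factor-driven endothelial tube area in a mixed cell culture, no cutoff stated; inactive means the rest.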
Select the correct class. Options are Yes for active, No for inactive and nothing else.

[
  {
    "compound": "CN(C)CCOC(c1ccc(Cl)cc1)c1ccccn1 (stereo not given)",
    "label": "No"
  }
]

Could you now look at the following compound, please?
Task item: What did this assay record as the result for `COC(=O)CCC(=O)CN` ?
Reply: No

###

Test: stimulators of nuclear beta-catenin in C2C12, primary screen, imaging, WNT3A-conditioned medium, mouse C2C12, NPC library (AID 1117326)
Details: stimulation, at 2 µM, stronger effect = higher value
# nuclear beta-catenin stimulation per record follows
Respond with the figure and its unit, in that order.

[
  {
    "compound": "CCCCN(CCN(CCCC)C(=O)N1CCOCC1)C(=O)N1CCOCC1",
    "result": "1%"
  },
  {
    "compound": "CCCCc1oc2ccccc2c1C(=O)c1cc(I)c(OCCN(CC)CC)c(I)c1",
    "result": "0.8%"
  },
  {
    "compound": "CCCCCC=CCC=CCCCCCCCC(=O)OCC",
    "result": "-0.5%"
  },
  {
    "compound": "CCN(Cc1ccncc1)C(=O)C(CO)c1ccccc1 (stereo not given)",
    "result": "-1.9%"
  }
]

Alright, here's another compound for you.
Task item: GET /values?readout=nuclear beta-catenin stimulation&item= `CC(=O)O[C@H]1CC[C@@]2(C)C(=CC[C@@H]3[C@@H]2CC[C@]2(C)C(C(C)=O)=CC[C@@H]32)C1`
Reply: 0.6%

###

# parasite % of control per record follows
Test: kinase inhibitors against Plasmodium liver-stage infection, cell-based, known kinase inhibitor set, luminescence, hepatoma host viability (AID 624392);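 further: infected cells incubated roughly two days before readout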
Details: Plasmodium liver stage in hepatoma cells, luciferase luminescence, concentration not given here; stronger effect = lower value
API: value field is a number in %; no unit string.

[
  {
    "mol-smiles": "Cc1ccc(Nc2ccnc(Nc3cccc(C(N)=O)c3)n2)cc1O",
    "attribute-measured": "parasite % of control",
    "numeric-result": 259
  },
  {
    "mol-smiles": "C[C@@H](Oc1cc(-n2cnc3ccc(OCC4CCN(C)CC4)cc32)sc1C(N)=O)c1ccccc1Cl",
    "attribute-measured": "parasite % of control",
    "numeric-result": 117
  },
  {
    "mol-smiles": "NS(=O)(=O)c1ccc(N=Nc2c(O)[nH]c3ccc(C(=O)NCCCn4ccnc4)cc23)cc1",
    "attribute-measured": "parasite % of control",
    "numeric-result": 116
  },
  {
    "mol-smiles": "CC(=O)Nc1cccc(C#Cc2cncnc2Nc2ccc(OCc3cccc(F)c3)c(Cl)c2)c1",
    "attribute-measured": "parasite % of control",
    "numeric-result": 108
  },
  {
    "mol-smiles": "O=S(=O)(CCOCc1ccc(-c2ccc3ncnc(Nc4ccc(OCc5cccc(F)c5)c(Cl)c4)c3c2)o1)c1ccccc1",
    "attribute-measured": "parasite % of control",
    "numeric-result": 111
  }
]

Task item: GET /values?readout=parasite % of control&item= `Cc1[nH]nc2c1N=C(c1ccccc1F)c1cc(C#N)ccc1N2`
Reply: 68.4

Task item: GET /values?readout=parasite % of control&item= `CCS(=O)(=O)c1ccc(OC)c(Nc2ncc(-c3cccc(F)c3)o2)c1`
Reply: 19.6

Task item: GET /values?readout=parasite % of control&item= `COc1cc(C)c(NC(=O)CN(C)C)cc1Nc1nc(Nc2cccc(F)c2C(N)=O)c2cc[nH]c2n1`
Reply: 550

Task item: GET /values?readout=parasite % of control&item= `COc1ccc(Nc2ncc(-c3ccccc3)o2)cc1OC`
Reply: 101
